test: Longer term cytotoxicity, HeLa, HuH7 and HepG2 (ranges); settings: human, CC50 range, HuH7 and HepG2, 9-12 day testing
endpoint label: CC50

## Input Query: CC50; subject: CO[P@](=O)(c1cc(C)cc(/C=C/C#N)c1)c1c(C(N)=O)[nH]c2ccc(Cl)c(F)c12
## Output 23.5 to 31.5 µM

====

target: CYP2B6 (Homo sapiens); test: Recombinant CYP450 inhibition, fluorometric, CYP2B6; format: in vitro ADME; design: from tissue; host or cells: pooled human liver microsomes; settings: recombinant enzyme, read-out: percentage of inhibition at the highest concentration tested, CYP2B6
Sequence (P20813 whole entry): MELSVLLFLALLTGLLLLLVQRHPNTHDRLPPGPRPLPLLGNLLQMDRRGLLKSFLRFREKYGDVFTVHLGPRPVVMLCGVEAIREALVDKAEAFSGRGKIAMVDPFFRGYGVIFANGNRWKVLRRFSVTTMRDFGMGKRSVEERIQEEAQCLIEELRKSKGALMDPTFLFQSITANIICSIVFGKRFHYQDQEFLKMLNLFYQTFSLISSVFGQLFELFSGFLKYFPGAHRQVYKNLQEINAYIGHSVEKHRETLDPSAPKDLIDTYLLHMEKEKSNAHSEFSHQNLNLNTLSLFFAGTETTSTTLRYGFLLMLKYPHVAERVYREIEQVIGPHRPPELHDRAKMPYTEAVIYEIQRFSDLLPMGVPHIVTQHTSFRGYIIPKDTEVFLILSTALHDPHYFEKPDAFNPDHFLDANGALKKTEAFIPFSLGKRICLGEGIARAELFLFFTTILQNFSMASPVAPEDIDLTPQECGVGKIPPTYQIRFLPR
endpoint label: inhibition at 20 µM
Reply with a number, then the unit it belongs to.

## Input Record request: inhibition at 20 µM value, item CO[P@](=O)(c1cc(C)cc(/C=C/C#N)c1)c1c(C(N)=O)[nH]c2ccc(Cl)c(F)c12
## Output 21.6%
